# testedSystem: HA of ca A/teal/Hong Kong/W312/97 (H6N1) (influenza A virus)
# assayOverview: cell-based or functional assay
Parameter Neutralization IC50, H6-HK97: see the listing below.
Enter your answer as a number in µg/mL; do not include the unit.

**Q:** Entry Antibody 3 (antibody, V domains shown) VH: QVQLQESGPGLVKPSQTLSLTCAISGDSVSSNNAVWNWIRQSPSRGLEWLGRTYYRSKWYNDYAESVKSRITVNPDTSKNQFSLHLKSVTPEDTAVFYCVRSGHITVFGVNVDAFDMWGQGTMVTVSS VL: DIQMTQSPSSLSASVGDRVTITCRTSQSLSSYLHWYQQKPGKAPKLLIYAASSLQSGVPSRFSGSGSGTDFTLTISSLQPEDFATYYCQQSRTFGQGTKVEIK has what Neutralization IC50, H6-HK97?
**A:** 0.63

Next binder, please.
**Q:** Can you share its Neutralization IC50, H6-HK97? I mean this binder: Antibody 12 (antibody, V domains shown) VH: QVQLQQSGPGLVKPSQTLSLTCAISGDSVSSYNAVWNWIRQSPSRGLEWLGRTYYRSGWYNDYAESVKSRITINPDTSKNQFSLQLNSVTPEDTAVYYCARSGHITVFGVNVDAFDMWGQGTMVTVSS VL: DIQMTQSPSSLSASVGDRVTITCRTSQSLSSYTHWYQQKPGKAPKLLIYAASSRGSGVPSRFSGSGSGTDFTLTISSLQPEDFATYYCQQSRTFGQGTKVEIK
**A:** 0.45
